Functional IC50 (µg/mL), cynomolgus/human MAdCAM-CHO/JY adhesion assay listing for selected binders.
Subject Of Test: T1, chimeric cynomolgus/human MAdCAM (cynomolgus; human, UniProt Q13477 226-382, limits assumed)
T1 sequence: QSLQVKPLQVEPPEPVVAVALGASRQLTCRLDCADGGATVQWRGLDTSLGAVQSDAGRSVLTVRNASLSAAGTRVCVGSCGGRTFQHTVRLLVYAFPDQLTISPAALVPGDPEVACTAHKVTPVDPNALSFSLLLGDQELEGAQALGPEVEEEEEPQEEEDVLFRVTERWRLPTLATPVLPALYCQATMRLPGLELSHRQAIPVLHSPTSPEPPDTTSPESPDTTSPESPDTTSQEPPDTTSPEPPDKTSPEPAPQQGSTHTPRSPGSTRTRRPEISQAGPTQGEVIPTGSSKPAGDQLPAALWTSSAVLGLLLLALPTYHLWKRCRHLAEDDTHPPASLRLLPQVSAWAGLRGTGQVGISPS
Method Description: cell-based or functional assay
Measurement Name: Functional IC50 (µg/mL), cynomolgus/human MAdCAM-CHO/JY adhesion assay

Binder	Result
anti-MAdCAM monoclonal antibody 6.14.2 (antibody, human IgG4, kappa, V domains shown) VH: EVQLLESGGGLVQPGGSLRLSCAASGLTFNNSAMTWVRQAPGKGLEWVSTTSGSGGTTYYADSVKGRFTISRDSPKNTLYLQMNSLRAEDTAVYYCAARGYSYGTTPYEYWGQGTLVTVSS VL: DIQMTQSPSSLSASVGDRVTITCRASRSISSYLNWYQQKPGKAPKVLIFFVSSLQSGVPSRFSGSGSGTDFTLTISSLQPEDFATYYCQQNYIPPITFGQGTRLEIRR	0.53 µg/mL
anti-MAdCAM monoclonal antibody 9.8.2 (antibody, human IgG4, kappa, V domains shown) VH: QVQLVESGGGVVQPGRSLRLSCAASGFTFSSYGMHWVRQAPGKGLEWVAVIWYDGSNEYYADSVKGRFTISRDNSKNTLYLQMNSLRAEDTAVYYCARGAYHFAYWGQGTLVTVSS VL: DIQMTQSPSSLSASVGDRVTITCQASQDISNYLNWYQQKPGKAPKLLIYDASNLETGVPSRFSGSGSGTDFTFTISSLQPEDIATYSCQHSDNLSITFGQGTRLEIKR	0.83 µg/mL
anti-MAdCAM monoclonal antibody 6.22.2 (antibody, human IgG4, kappa, V domains shown) VH: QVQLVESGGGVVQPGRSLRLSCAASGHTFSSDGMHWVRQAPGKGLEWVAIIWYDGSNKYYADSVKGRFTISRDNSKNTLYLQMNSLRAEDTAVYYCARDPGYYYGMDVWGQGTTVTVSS VL: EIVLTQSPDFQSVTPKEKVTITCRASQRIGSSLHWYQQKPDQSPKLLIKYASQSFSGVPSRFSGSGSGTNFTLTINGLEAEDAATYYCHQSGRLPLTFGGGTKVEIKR	0.83 µg/mL
